# procedure text: NCI Yeast Anticancer Drug Screen. Data for the mec2-1 strain (AID 157)
# experimental context: S. cerevisiae mec2-1 strain, at 50.0 µM, stronger effect = higher value
About 79,000 compounds went through this panel and 15% of them were active in at least one assay; those are over-represented in the sample as a whole.
growth inhibition reference
measured attribute: growth inhibition (%)

compound=O=C(O)COc1ccc(I)cc1I readout_value=-8.05
compound=O=C(c1ccc(F)cc1)c1cccc(C(=O)c2ccc(F)cc2)n1 readout_value=-24
compound="Nc1nc2c(nc(Br)n2C2OC(CO)C(O)C2O)c(=O)[nH]1 (stereo unspecified)" readout_value=-1.6
compound=COc1ccc(COC(=O)Nc2cccc(Cl)c2C)cc1 readout_value=8.95
compound="O=C(Nc1cccc(Cl)c1)ON1C(=O)C2C(C1=O)C1(Cl)C(Cl)C(Cl)C2(Cl)C1(Cl)Cl (stereo unspecified)" readout_value=19.4
compound=C[N+](C)(C)CCC(=O)N1C/C(=C\c2ccccc2)C(=O)/C(=C/c2ccccc2)C1 readout_value=-15.2
